Ref: patent US11981673B1

Listed here: items and their measured Ki.
measurement-target: human A3R (Homo sapiens)
Construct: expressed in transfected cells; host or cells: CHO cells
Sequence (P0DMS8 1-318): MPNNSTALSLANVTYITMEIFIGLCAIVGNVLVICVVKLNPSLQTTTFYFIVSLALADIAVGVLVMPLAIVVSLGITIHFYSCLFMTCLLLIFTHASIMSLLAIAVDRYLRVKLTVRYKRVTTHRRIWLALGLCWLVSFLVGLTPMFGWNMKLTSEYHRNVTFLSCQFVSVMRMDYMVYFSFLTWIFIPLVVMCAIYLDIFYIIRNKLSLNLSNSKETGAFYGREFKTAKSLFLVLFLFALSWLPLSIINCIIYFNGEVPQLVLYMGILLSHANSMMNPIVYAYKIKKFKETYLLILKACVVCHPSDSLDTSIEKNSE
protocol-text: Displacement of specific [3H]-HEMADO binding at human A3R expressed in CHO cells
assay-conditions: [3H]-HEMADO displacement, means ± SE, read-out: hA3R (Ki nM)

# molecule, Ki (nM)
records = [
    ("CCOC(=O)c1cc(C(=O)c2ccc(F)cc2)n2ccc(C(=O)OC(C)C)cc12 [KNV-ISP4]", 665),
    ("COC(=O)c1c(C(=O)OC)c2cc(C(=O)OC(C)C)ccn2c1C(=O)c1ccc(C#N)cc1 [KNV-ISP9]", 6210),
    ("COC(=O)c1c(C(=O)OC)c2cc(C(=O)OC(C)C)ccn2c1C(=O)c1ccc(Br)cc1 [KNV-ISP7]", 1220),
    ("CCOC(=O)c1cc(C(=O)c2ccc(Br)cc2)n2ccc(C(=O)OC(C)C)cc12 [KNV-ISP8]", 1680),
    ("CCOC(=O)c1cc(C(=O)c2ccc(C#N)cc2)n2ccc(C(=O)OC(C)C)cc12 [KNV-ISP10]", 7670),
    ("COC(=O)c1c(C(=O)OC)c2cc(C(=O)OC(C)C)ccn2c1C(=O)c1ccc(C)cc1 [KNV-ISP11]", 1600),
    ("CCOC(=O)c1cc(C(=O)c2ccc(Cl)cc2)n2ccc(C(=O)OC(C)C)cc12 [KNV-ISP6]", 14300),
]

----------
Listed here: items and their measured Ki.
measurement-target: human A2AR (Homo sapiens, UniProt P29274)
Construct: expressed in transfected cells; host or cells: CHO cells
Sequence (P29274 whole entry): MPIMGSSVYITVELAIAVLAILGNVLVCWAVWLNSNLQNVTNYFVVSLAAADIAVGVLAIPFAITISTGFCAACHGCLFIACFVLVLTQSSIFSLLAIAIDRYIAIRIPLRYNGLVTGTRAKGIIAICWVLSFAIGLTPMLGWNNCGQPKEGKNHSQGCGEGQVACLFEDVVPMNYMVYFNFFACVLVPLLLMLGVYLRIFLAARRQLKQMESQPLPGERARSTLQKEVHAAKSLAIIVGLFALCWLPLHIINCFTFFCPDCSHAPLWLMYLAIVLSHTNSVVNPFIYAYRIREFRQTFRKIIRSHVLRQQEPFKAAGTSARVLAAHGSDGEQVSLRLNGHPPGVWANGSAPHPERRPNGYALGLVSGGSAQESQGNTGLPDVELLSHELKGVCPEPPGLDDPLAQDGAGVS
protocol-text: Displacement of specific [3H]-NECA binding at human A2AR expressed in CHO cells
assay-conditions: [3H]-NECA displacement, means ± SE, read-out: hA2AR (Ki nM)
measure-name: Ki (nM)

# cpd-smiles, measurement-target, measure-name, units-of-measure, rel, observed-result
data = [
    ("COC(=O)c1c(C(=O)OC)c2cc(C(=O)OC(C)C)ccn2c1C(=O)c1ccccc1", "human A2AR (Homo sapiens, UniProt P29274)", "Ki", "nM", "=", 2690),
    ("COC(=O)c1c(C(=O)OC)c2cc(C(=O)OC(C)C)ccn2c1C(=O)c1ccc(C)cc1", "human A2AR (Homo sapiens, UniProt P29274)", "Ki", "nM", "=", 2920),
    ("CCOC(=O)c1cc(C(=O)c2ccc(Cl)cc2)n2ccc(C(=O)OC(C)C)cc12", "human A2AR (Homo sapiens, UniProt P29274)", "Ki", "nM", ">", 30000),
    ("CCOC(=O)c1cc(C(=O)c2ccc(F)cc2)n2ccc(C(=O)OC(C)C)cc12", "human A2AR (Homo sapiens, UniProt P29274)", "Ki", "nM", ">", 30000),
    ("COC(=O)c1c(C(=O)OC)c2cc(C(=O)OC(C)C)ccn2c1C(=O)c1ccc(Br)cc1", "human A2AR (Homo sapiens, UniProt P29274)", "Ki", "nM", "=", 14900),
    ("CCOC(=O)c1cc(C(=O)c2ccc(C#N)cc2)n2ccc(C(=O)OC(C)C)cc12", "human A2AR (Homo sapiens, UniProt P29274)", "Ki", "nM", ">", 30000),
    ("COC(=O)c1c(C(=O)OC)c2cc(C(=O)OC(C)C)ccn2c1C(=O)c1ccc(F)cc1", "human A2AR (Homo sapiens, UniProt P29274)", "Ki", "nM", "=", 3950),
    ("COC(=O)c1c(C(=O)OC)c2cc(C(=O)OC(C)C)ccn2c1C(=O)c1ccc(C#N)cc1", "human A2AR (Homo sapiens, UniProt P29274)", "Ki", "nM", "=", 10300),
    ("CCOC(=O)c1cc(C(=O)c2ccccc2)n2ccc(C(=O)OC(C)C)cc12", "human A2AR (Homo sapiens, UniProt P29274)", "Ki", "nM", ">", 30000),
    ("COC(=O)c1c(C(=O)OC)c2cc(C(=O)OC(C)C)ccn2c1C(=O)c1ccc(Cl)cc1", "human A2AR (Homo sapiens, UniProt P29274)", "Ki", "nM", "=", 7400),
    ("CCOC(=O)c1cc(C(=O)c2ccc(Br)cc2)n2ccc(C(=O)OC(C)C)cc12", "human A2AR (Homo sapiens, UniProt P29274)", "Ki", "nM", ">", 30000),
]

----------
measurement-target: human A1R (Homo sapiens, UniProt P30542)
Construct: expressed in transfected cells; host or cells: CHO cells
Sequence (P30542 whole entry): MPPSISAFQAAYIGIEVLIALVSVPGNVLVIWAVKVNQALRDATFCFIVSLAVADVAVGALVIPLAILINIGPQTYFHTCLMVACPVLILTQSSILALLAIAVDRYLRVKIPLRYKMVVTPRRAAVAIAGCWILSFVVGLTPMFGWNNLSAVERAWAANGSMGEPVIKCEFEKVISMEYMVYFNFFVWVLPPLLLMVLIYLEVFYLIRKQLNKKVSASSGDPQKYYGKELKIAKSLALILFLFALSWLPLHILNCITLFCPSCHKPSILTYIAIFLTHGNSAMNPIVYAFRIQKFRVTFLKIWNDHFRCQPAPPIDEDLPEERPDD
protocol-text: Displacement of specific [3H]-CCPA binding at human A1R expressed in CHO cells
assay-conditions: [3H]-CCPA displacement, means ± SE, read-out: hA1R (Ki nM)

# cpd-smiles, measurement-target, Ki
data = [
    ("COC(=O)c1c(C(=O)OC)c2cc(C(=O)OC(C)C)ccn2c1C(=O)c1ccc(C)cc1", "human A1R (Homo sapiens, UniProt P30542)", "692 nM"),
    ("CCOC(=O)c1cc(C(=O)c2ccccc2)n2ccc(C(=O)OC(C)C)cc12", "human A1R (Homo sapiens, UniProt P30542)", "7050 nM"),
    ("COC(=O)c1c(C(=O)OC)c2cc(C(=O)OC(C)C)ccn2c1C(=O)c1ccccc1", "human A1R (Homo sapiens, UniProt P30542)", "1640 nM"),
]

----------
Listed here: items and their measured Ki.
measurement-target: human A1R (Homo sapiens, UniProt P30542)
Construct: expressed in transfected cells; host or cells: CHO cells
protocol-text: Displacement of specific [3H]-CCPA binding at human A1R expressed in CHO cells
assay-conditions: [3H]-CCPA displacement, means ± SE, read-out: hA1R (Ki nM)
measure-name: Ki

# compound, measurement-target, measure-name, observed-result
rows = [
    ("COC(=O)c1c(C(=O)OC)c2cc(C(=O)OC(C)C)ccn2c1C(=O)c1ccc(Cl)cc1 [KNV-ISP5]", "human A1R (Homo sapiens, UniProt P30542)", "Ki", "3710 nM"),
    ("COC(=O)c1c(C(=O)OC)c2cc(C(=O)OC(C)C)ccn2c1C(=O)c1ccc(F)cc1 [KNV-ISP3]", "human A1R (Homo sapiens, UniProt P30542)", "Ki", "2710 nM"),
    ("CCOC(=O)c1cc(C(=O)c2ccc(Cl)cc2)n2ccc(C(=O)OC(C)C)cc12 [KNV-ISP6]", "human A1R (Homo sapiens, UniProt P30542)", "Ki", "> 30000 nM"),
    ("COC(=O)c1c(C(=O)OC)c2cc(C(=O)OC(C)C)ccn2c1C(=O)c1ccc(Br)cc1 [KNV-ISP7]", "human A1R (Homo sapiens, UniProt P30542)", "Ki", "5410 nM"),
    ("COC(=O)c1c(C(=O)OC)c2cc(C(=O)OC(C)C)ccn2c1C(=O)c1ccc(C#N)cc1 [KNV-ISP9]", "human A1R (Homo sapiens, UniProt P30542)", "Ki", "> 30000 nM"),
    ("CCOC(=O)c1cc(C(=O)c2ccc(Br)cc2)n2ccc(C(=O)OC(C)C)cc12 [KNV-ISP8]", "human A1R (Homo sapiens, UniProt P30542)", "Ki", "> 30000 nM"),
    ("CCOC(=O)c1cc(C(=O)c2ccc(F)cc2)n2ccc(C(=O)OC(C)C)cc12 [KNV-ISP4]", "human A1R (Homo sapiens, UniProt P30542)", "Ki", "6980 nM"),
    ("CCOC(=O)c1cc(C(=O)c2ccc(C#N)cc2)n2ccc(C(=O)OC(C)C)cc12 [KNV-ISP10]", "human A1R (Homo sapiens, UniProt P30542)", "Ki", "> 30000 nM"),
]

----------
measurement-target: human A3R (Homo sapiens, UniProt P0DMS8)
Construct: expressed in transfected cells; host or cells: CHO cells
protocol-text: Displacement of specific [3H]-HEMADO binding at human A3R expressed in CHO cells
assay-conditions: [3H]-HEMADO displacement, means ± SE, read-out: hA3R (Ki nM)

# cpd-smiles, Ki (nM)
rows = [
    ("COC(=O)c1c(C(=O)OC)c2cc(C(=O)OC(C)C)ccn2c1C(=O)c1ccc(F)cc1", 1400),
    ("CCOC(=O)c1cc(C(=O)c2ccccc2)n2ccc(C(=O)OC(C)C)cc12", 3640),
    ("COC(=O)c1c(C(=O)OC)c2cc(C(=O)OC(C)C)ccn2c1C(=O)c1ccccc1", 2200),
    ("COC(=O)c1c(C(=O)OC)c2cc(C(=O)OC(C)C)ccn2c1C(=O)c1ccc(Cl)cc1", 7600),
]
